Biological target: BACE1 (HTRF long substrate and FRET short substrate assays of Example 9D)
Assay: cell-based or functional assay
readout-name: EC50, FRET short substrate (pM)
Express it in pM; write the number only.

Task: Please report the measured EC50, FRET short substrate for 5876 (antibody, V domains shown, anti-BACE1 IgG) VH: EVQLLESGGGLVQPGGSLRLSCAASGFTFSSRAMGWVRQAPGKGLEWVSATSGSGGSIYYADSVKGRFTISRDNSKNTLYLQMNSLRAEDTAVYYCAKGGSQWLYAPGSWFDPWGQGTLVTVSS VL: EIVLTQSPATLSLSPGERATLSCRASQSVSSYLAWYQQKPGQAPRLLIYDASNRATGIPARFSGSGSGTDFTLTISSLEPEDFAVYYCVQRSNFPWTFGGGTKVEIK
Result: 703

Task: For the binder 5887 (antibody, V domains shown, anti-BACE1 IgG) VH: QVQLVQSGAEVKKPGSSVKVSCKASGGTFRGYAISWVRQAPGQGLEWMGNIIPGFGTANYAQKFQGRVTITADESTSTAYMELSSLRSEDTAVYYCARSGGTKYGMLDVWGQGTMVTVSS VL: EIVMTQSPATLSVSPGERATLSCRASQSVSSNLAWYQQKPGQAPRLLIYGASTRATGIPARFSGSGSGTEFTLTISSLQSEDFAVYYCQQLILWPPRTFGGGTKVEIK , give its measured EC50, FRET short substrate value.
Result: 482

Task: Please supply the value of reported EC50, FRET short substrate for the item 5875 (antibody, V domains shown, anti-BACE1 IgG) VH: EVQLLESGGGLVQPGGSLRLSCAASGFTFSTYAMGWVRQAPGKGLEWVSATSGSGGSTYYADSVKGRFTISRDNSKNTLYLQMNSLRAEDTAVYYCAKGGSQWLYAPGSWFDPWGQGTLVTVSS VL: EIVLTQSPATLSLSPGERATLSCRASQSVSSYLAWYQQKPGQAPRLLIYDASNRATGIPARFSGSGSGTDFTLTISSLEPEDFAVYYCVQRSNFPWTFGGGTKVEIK
Result: 1990
